Just for reference, patent US7598258B2 is where these values come from.

target: mouse c-fms (Mus musculus, UniProt P09581); construct: Macrophage-like cell line BAC-1.2F5 which expresses c-fms as a M-CSF receptor on cell membranes; endogenous in cells; test: Inhibition of c-fms autophosphorylation in macrophage-like cell line BAC-1.2F5 by M-CSF stimulation (ELISA); details: BAC-1.2F5 cells, human recombinant M-CSF 50 ng/ml, read-out: c-fms autophosphorylation 50% inhibitory concentration (IC50)
Sequence (P09581 20-977): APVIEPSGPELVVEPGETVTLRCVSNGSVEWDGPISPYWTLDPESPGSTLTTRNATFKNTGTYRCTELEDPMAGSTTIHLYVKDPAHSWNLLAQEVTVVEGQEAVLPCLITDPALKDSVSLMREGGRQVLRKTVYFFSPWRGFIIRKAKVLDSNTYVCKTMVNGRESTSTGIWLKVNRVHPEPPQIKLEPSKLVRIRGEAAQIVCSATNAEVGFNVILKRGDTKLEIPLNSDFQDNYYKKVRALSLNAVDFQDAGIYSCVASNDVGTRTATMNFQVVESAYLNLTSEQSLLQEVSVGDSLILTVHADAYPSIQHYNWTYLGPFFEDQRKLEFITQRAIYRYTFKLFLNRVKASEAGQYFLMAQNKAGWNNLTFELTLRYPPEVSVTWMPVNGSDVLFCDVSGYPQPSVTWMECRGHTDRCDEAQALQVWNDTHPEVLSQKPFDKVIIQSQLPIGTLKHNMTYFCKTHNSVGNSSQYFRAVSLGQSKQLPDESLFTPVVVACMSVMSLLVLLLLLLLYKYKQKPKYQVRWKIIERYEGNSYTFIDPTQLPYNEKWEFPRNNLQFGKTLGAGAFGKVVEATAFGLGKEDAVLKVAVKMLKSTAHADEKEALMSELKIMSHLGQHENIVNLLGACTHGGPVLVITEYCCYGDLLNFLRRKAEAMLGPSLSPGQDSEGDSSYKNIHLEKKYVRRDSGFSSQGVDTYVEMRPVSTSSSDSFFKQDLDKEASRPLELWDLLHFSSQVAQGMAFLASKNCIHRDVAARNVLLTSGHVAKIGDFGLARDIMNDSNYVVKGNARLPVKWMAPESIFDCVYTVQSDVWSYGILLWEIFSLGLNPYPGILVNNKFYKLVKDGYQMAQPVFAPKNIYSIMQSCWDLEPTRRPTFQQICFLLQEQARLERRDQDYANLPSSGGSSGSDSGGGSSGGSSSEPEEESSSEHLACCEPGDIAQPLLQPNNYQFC
pIC50 values, listed per item
The scale used: pIC50 is minus the common logarithm of the concentration in molar units.

>  <compound>
COc1cc2nccc(Oc3ccc(NC(=O)N[C@H](C)c4cccc(Br)c4)cc3OC)c2cc1OC

>  <subject.of.test>
mouse c-fms (Mus musculus, UniProt P09581)

>  <pIC50>
7.35

$$$$
>  <compound>
COc1cc2nccc(Oc3ccc(NC(=O)NC(C)c4ccc(F)cc4)cc3Cl)c2cc1OC (stereo not shown)

>  <subject.of.test>
mouse c-fms (Mus musculus, UniProt P09581)

>  <pIC50>
8.15

$$$$
>  <compound>
COc1cc2nccc(Oc3cc(C)c(NC(=O)NC(C)c4nc(C)c(C)s4)cc3C)c2cc1OC (stereo not shown)

>  <subject.of.test>
mouse c-fms (Mus musculus, UniProt P09581)

>  <pIC50>
6.37

$$$$

Field: next compound
## Task Please report the recorded pIC50 for COc1cc2nccc(Oc3ccc(NC(=O)N[C@@H](C)c4ccc([N+](=O)[O-])cc4)cc3)c2cc1OC .
## Result 7.92
